Test system: HCT-15 colon
protocol-text: NCI-60 one-dose screen, 48 h (100 = growth as untreated, 0 = no growth, -100 = all killed)
test-conditions: 10 µM unless noted
About 83,000 compounds went through this panel and 20% of them were active in at least one assay; those are over-represented in the sample as a whole.
# binning rule on growth: low-valued: < 20%; mid-valued: ≥ 20% and < 90%; high-valued: ≥ 90%

Examples with answers:
CCOc1ccc(/C=C/C(=O)c2cccc(OCCCOc3cccc(C(=O)/C=C/c4ccc(OCC)cc4)c3)c2)cc1 ... mid-valued
C/C(Cc1ccc(Cl)cc1)=C(\c1ccc(OCCN2CCCCCC2)cc1)c1ccc(OC(=O)c2ccccc2)cc1 ... low-valued
O=C1CCCC1[n+]1ccccc1 (stereo unspecified) ... high-valued
COC(=O)Cn1c2c(c3c(OC)cccc31)C(=O)c1ccccc1-2 ... high-valued

// query Assign a bin to `O=C1c2cccnc2C(=O)c2c1c(C(=O)OCCc1ccccn1)c1ccccn21`
// result low-valued

// query And the next one, `Clc1ccc(-c2nc(C(Cl)Cl)nc3cc(-c4ccccc4)nn23)cc1` ?
// result low-valued

// query And the next one, `Cc1c(C(C)(C)O)cn2ncnc(Oc3ccc(NC(=O)Nc4ccc(Cl)c(C(F)(F)F)c4)c(F)c3)c12` ?
// result mid-valued

// query And the next one, `CCN(CC)C(=O)CC1=C(C)/C(=C/c2[nH]c(-c3ccc[nH]3)cc2OC)N=C1C` ?
// result low-valued

// query And the next one, `CCN(CC)CCCNc1cc(OC)c(OC)c2cccnc12` ?
// result mid-valued

// query And the next one, `Cc1[nH]c(C(=O)Nc2ccccc2OC2CCN(CCN3CCOCC3)CC2)c(Cl)c1Cl` ?
// result mid-valued

// query And the next one, `CSc1ccc2c3c(n(C[C@H](O)CO)c(=O)c2c1)-c1ccccc1C3=O` ?
// result low-valued

// query And the next one, `COc1ccc2c(c1)CC[C@@H]1[C@@H]2CC[C@]2(C)c3c(cc(C#N)c4c3sc3ccccc34)C[C@@H]12` ?
// result high-valued

// query And the next one, `c1ccc(-c2nc3ccccc3[nH]2)c(OCCCCCOc2ccccc2-c2nc3ccccc3[nH]2)c1` ?
// result mid-valued

// query And the next one, `Cn1c(=O)[nH]c(=O)c2nc3c(nc21)-c1ccccc1C3=O` ?
// result high-valued

// query And the next one, `Nc1nc2ccccc2c2c(=O)c3cc(Cl)ccc3sc12` ?
// result high-valued

// query And the next one, `Cc1nn(-c2ccc([N+](=O)[O-])cc2)c2ncnc(N/N=C/c3ccccc3O)c12` ?
// result mid-valued
